Entry source: ChEMBL document CHEMBL4433226

# system: T1R2/T1R3 (Homo sapiens) (UniProt Q8TE23+Q7RTX0)
# assay text: Agonist activity at human T1R2/T1R3 expressed in PEAKrapid cells assessed as effect on intracellular calcium influx measured for 120 secs by fluorescence based assay
# Type: functional, cell-based
Activity calls are given as the source filed them. The calls are words filed in the database; no cut-off is given here.
quantity kind: Activity

record smiles	value
Nc1c(C(=O)O)cncc1-c1ccccc1	inactive
CC[C@H](C)[C@H](N)C(=O)NCc1ccc(-c2cncc(C(=O)O)c2N)o1	inactive
CC(C)[C@@H](CC(=O)Nc1cncc(C(=O)O)c1N)NC(=O)[C@@H](N)C1CCCCC1	inactive
CC(C)CNC(=O)NCc1ccc(-c2cncc(C(=O)O)c2N)o1	inactive
CC(C)(C)OC(=O)NCc1ccc(-c2cncc(C(=O)O)c2N)o1	inactive
CC(C)CC(=O)NCc1ccc(-c2cncc(C(=O)O)c2N)o1	inactive
CC(C)C[C@H](N)C(=O)NCc1ccc(-c2cncc(C(=O)O)c2N)o1	inactive
Nc1c(NC(=O)CCCCCCNC(=O)[C@@H](N)C2CCCCC2)cncc1C(=O)O	inactive
CC(C)[C@H](N)C(=O)NCc1ccc(-c2cncc(C(=O)O)c2N)o1	inactive
Nc1c(NC(=O)CC[C@H](Cc2ccccc2)NC(=O)[C@@H](N)C2CCCCC2)cncc1C(=O)O	inactive
Nc1c(C(=O)O)cncc1-c1ccco1	inactive
CC(C)(CC(=O)Nc1cncc(C(=O)O)c1N)NC(=O)[C@@H](N)C1CCCCC1.Cl.Cl	inactive
Cc1nc2cccc(OCC(C)(C)C(=O)NC(C)C)c2c(N)c1C(=O)O	inactive
Nc1c(NC(=O)CCCNC(=O)[C@@H](N)C2CCCCC2)cncc1C(=O)O	inactive
Cl.Cl.Nc1c(C(=O)O)cncc1-c1ccc(CNC(=O)[C@@H](N)C2CCCCC2)o1	inactive
C[C@@H](CC(=O)Nc1cncc(C(=O)O)c1N)NC(=O)[C@@H](N)C1CCCCC1	inactive
CC(=O)NCc1ccc(-c2cncc(C(=O)O)c2N)o1	inactive
